biological target: Fibroblast growth factor receptor 1 (Homo sapiens, UniProt P11362); experiment: Inhibition of N-terminal GST-tagged human FGFR1 cytoplasmic domain (398-822 AA) expressed in baculovirus at 10 uM using FAM-labelled peptide as substrate pre-incubated for 10 mins followed by substrate addition by mobility shift assay relative to control
Sequence (P11362 22-822 limits assumed): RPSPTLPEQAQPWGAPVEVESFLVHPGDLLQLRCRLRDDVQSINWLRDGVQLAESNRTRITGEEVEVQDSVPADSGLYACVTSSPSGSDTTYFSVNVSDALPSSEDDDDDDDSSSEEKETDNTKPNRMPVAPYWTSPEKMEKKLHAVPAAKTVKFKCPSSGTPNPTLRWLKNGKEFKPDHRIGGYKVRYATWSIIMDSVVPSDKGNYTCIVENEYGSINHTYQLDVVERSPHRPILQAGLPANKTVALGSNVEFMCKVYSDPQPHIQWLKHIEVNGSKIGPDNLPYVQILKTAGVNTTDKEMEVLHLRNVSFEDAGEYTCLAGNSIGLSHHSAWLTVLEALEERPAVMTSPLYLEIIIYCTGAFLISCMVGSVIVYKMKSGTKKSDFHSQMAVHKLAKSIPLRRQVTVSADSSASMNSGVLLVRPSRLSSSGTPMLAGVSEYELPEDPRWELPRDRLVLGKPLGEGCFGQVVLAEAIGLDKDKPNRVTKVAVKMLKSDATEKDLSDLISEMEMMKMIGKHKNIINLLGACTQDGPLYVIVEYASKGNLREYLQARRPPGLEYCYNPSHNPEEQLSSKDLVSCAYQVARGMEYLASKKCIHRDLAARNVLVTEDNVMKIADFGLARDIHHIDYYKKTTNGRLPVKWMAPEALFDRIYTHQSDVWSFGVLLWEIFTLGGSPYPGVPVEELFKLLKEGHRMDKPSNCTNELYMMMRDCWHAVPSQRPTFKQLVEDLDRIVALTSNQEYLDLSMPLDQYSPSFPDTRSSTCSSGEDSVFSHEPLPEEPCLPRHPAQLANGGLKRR
Exercise: for every item that follows, state its recorded inhibition.
Return type: number; implicit unit %.

stdin: Returns the measured inhibition for the input molecule. Input: "COc1cc(NC(=O)Nc2cc(Nc3cc(C)cc(F)c3)ncn2)cc(OC)c1"
stdout: 1.1

stdin: For the molecule "COc1cc(NC(=O)Nc2cc(Nc3ccc(OC)c(I)c3)ncn2)cc(OC)c1" , what inhibition is on record?
stdout: 10.3

stdin: I am curious: what inhibition value has been reported for "Cc1cc(F)cc(Nc2cc(NC(=O)Nc3c(Cl)cccc3Cl)ncn2)c1" ?
stdout: 70.3

stdin: Given the molecule "COc1cc(NC(=O)Nc2cc(Nc3ccc(Br)cc3OC)ncn2)cc(OC)c1" , what is its reported inhibition?
stdout: -0.7

stdin: Bench note: what inhibition did "COc1cc(NC(=O)Nc2cc(Nc3cc(F)ccc3OC)ncn2)cc(OC)c1" show?
stdout: -1.6

stdin: What value of inhibition has been reported for the following molecule? "COc1cc(Nc2cc(NC(=O)Nc3c(Cl)cccc3Cl)ncn2)cc(C(F)(F)F)c1"
stdout: 0.9

stdin: Please give the measured inhibition for this molecule: "Cc1ccc(Nc2cc(NC(=O)Nc3c(Cl)cccc3Cl)ncn2)cc1C"
stdout: 45.3

stdin: Given "CCc1ccc(Nc2cc(NC(=O)Nc3cc(OC)cc(OC)c3)ncn2)cc1" , state its recorded inhibition.
stdout: 6.1

stdin: What does the record list as inhibition for "COc1cc(NC(=O)Nc2cc(Nc3cc(Br)ccc3OC)ncn2)cc(OC)c1" ?
stdout: -1.5

stdin: Return reported inhibition; argument: "COc1cc(Br)ccc1Nc1cc(NC(=O)Nc2c(Cl)cccc2Cl)ncn1"
stdout: 12.6

stdin: Entry "COc1cc(NC(=O)Nc2cc(Nc3cccc(C(C)(C)C)c3)ncn2)cc(OC)c1" : reported inhibition = ?
stdout: 5.2

stdin: Report inhibition for "COc1cc(NC(=O)Nc2cc(Nc3cc(OC)cc(C(F)(F)F)c3)ncn2)cc(OC)c1" please.
stdout: -1.7

stdin: What does the data say about its inhibition? Entry: "CC(C)(C)c1cccc(Nc2cc(NC(=O)Nc3c(Cl)cccc3Cl)ncn2)c1"
stdout: 10.7

stdin: Given the entry "COc1ccc(Br)cc1Nc1cc(NC(=O)Nc2c(Cl)cccc2Cl)ncn1" , report its measured inhibition.
stdout: 37.8

stdin: Look at this molecule and give its reported inhibition. "Cc1ccc(Nc2cc(NC(=O)Nc3c(Cl)cccc3Cl)ncn2)cc1F"
stdout: 51

stdin: For "COc1cc(NC(=O)Nc2cc(Nc3ccc(C(C)(C)C)cc3)ncn2)cc(OC)c1" , what is its reported inhibition?
stdout: -0.7

stdin: Endpoint output: inhibition of "COc1cc(NC(=O)Nc2cc(Nc3ccc(F)c(Cl)c3)ncn2)cc(OC)c1" . Value?
stdout: 1

stdin: Return reported inhibition; argument: "COc1ccc(OC)c(Nc2cc(NC(=O)Nc3c(Cl)cccc3Cl)ncn2)c1"
stdout: 88.5

stdin: Recorded inhibition for "COc1cc(NC(=O)Nc2cc(Nc3ccc(OC)c(C)c3)ncn2)cc(OC)c1" , please?
stdout: 36.6

stdin: Please look up its inhibition: "COc1cc(Nc2cc(NC(=O)Nc3c(Cl)cccc3Cl)ncn2)cc(OC)c1"
stdout: 74.2

stdin: Record request: inhibition value, item "CCc1cccc(Nc2cc(NC(=O)Nc3cc(OC)cc(OC)c3)ncn2)c1"
stdout: 1.1
